Listed here: items and their measured Cells stained (%).
# tested on: T1, GARS, endogenous in H929 multiple myeloma cells (human, UniProt P41250 37-739, limits assumed)
# T1 construct: Native protein pulled down from H929 lysates; also called Glycyl-tRNA synthetase; GlyRS
# T1 sequence: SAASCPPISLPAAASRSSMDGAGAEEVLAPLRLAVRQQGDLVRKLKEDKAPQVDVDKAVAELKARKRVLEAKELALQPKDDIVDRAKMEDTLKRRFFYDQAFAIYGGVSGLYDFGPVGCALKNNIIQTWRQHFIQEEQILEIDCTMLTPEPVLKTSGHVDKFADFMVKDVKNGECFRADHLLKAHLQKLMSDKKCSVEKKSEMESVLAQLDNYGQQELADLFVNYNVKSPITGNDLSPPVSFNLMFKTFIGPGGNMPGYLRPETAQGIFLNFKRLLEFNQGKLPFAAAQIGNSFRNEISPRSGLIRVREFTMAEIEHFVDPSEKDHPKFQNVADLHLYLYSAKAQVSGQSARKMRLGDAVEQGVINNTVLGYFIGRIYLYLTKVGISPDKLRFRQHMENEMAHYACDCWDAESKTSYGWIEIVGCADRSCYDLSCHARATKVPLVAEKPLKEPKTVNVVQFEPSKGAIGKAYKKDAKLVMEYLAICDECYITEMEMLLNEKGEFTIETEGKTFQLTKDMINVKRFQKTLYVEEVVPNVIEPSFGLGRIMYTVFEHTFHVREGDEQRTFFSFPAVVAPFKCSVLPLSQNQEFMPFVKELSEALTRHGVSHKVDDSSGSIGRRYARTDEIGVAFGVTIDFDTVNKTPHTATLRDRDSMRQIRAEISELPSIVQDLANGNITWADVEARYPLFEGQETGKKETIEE
# procedure summary: flow cytometry, H929 + ICAM1 siRNA; None 1.06; surface target GARS putative

- binder: "HW-28 chimeric rabbit-human IgG1 LA/LA/PG (antibody, V domains shown, Fc-silenced (L234A/L235A/P329G) IgG1, lambda; Alexa Fluor 647-labeled in single-step flow cytometry; Cluster C-45) VH: QKQLVESGGRLVTPGTPLTLTCTASGFSLSSNAMSWVRQAPGEGLQWIGTISSGGSTYYASWAKGRFTISKTSTTVTLKMTSLTTEDTATYFCARGADLHRLWGPGTLVTVSS VL: SFVLTQPASVQVNLGQTVSLTCTGKPLSRSFASWYQQKPGQAPVLVIYRDTSRPSGVPDRFSGSSSGNTATLTISGAQAGDEADYYCATSDGSGSSYQYVFGGGTQLTVTG"
  unit abbrev: "%"
  Cells stained (%): 96.9
- binder: "HW-16 chimeric rabbit-human IgG1 LA/LA/PG (antibody, V domains shown, Fc-silenced (L234A/L235A/P329G) IgG1, kappa; Alexa Fluor 647-labeled in single-step flow cytometry; Cluster C-45) VH: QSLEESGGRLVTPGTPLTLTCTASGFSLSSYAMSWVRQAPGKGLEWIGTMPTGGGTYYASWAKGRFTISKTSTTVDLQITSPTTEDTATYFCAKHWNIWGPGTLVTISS VL: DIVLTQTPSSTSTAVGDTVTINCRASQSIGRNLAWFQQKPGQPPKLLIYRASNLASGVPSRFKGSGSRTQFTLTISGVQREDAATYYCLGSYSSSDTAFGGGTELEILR"
  unit abbrev: "%"
  Cells stained (%): 98.1
- binder: "HW-81 chimeric rabbit-human IgG1 LA/LA/PG (antibody, V domains shown, Fc-silenced (L234A/L235A/P329G) IgG1, lambda; Alexa Fluor 647-labeled in single-step flow cytometry; Cluster C-45) VH: QKQLVESGGGLVTPGGTLTLTCTVSGFSLSSNGVSWVRQAPGKGLEYIGLIRSIGSTYYATWAKGRFTISKTSTTVDLKITSPTTEDTATYFCARGGYRNGFKLWGPGTLVTVSS VL: QPVLTQSPSVSAALGASAKLTCTLSSAHKTYYIEWYQQQHPGKAPRYLMQLQSDGSYTKGTGVPDRFSGSSSGADRYLIISSVQAEDEADYICGVIDSAVYVFGGGTQLTVTG"
  unit abbrev: "%"
  Cells stained (%): 99.1

These measurements were taken from patent US20260049134A1.
